# TARGET_DESC: FLT3 (Homo sapiens)
# Sequence (P36888 27-993): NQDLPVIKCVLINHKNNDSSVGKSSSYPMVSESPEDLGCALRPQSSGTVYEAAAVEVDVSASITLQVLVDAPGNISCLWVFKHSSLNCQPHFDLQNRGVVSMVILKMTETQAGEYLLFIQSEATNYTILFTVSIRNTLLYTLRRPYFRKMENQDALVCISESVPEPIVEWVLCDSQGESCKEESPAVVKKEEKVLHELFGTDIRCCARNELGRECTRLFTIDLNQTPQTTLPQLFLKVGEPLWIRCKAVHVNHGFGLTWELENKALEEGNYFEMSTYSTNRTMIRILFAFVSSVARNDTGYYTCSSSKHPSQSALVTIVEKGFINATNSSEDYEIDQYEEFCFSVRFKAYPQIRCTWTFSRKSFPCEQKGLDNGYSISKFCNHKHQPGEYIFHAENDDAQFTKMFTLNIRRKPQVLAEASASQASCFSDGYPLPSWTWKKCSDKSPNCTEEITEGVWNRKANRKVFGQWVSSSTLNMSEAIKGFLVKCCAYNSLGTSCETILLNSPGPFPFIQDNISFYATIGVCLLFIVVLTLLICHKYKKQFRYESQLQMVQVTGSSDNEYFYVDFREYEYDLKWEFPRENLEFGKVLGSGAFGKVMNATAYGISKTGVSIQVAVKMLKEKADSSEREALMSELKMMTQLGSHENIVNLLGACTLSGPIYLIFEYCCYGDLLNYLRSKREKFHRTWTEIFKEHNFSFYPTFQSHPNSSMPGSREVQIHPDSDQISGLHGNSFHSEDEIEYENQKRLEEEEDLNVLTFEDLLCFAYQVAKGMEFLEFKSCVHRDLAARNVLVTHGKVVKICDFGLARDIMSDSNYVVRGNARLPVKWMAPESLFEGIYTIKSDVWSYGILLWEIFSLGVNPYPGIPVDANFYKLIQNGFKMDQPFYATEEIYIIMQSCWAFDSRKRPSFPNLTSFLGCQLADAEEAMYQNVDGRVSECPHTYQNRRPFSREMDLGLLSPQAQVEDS

SMILES_NOTATION	IC50 [nM]
O=C(c1cnccn1)N1CCC[C@@H]1c1nc(Nc2cc(C3CC3)[nH]n2)c2cccn2n1	6
O=C(C1CCNCC1)N1CCC[C@H]1c1nc(Nc2cc(C3CC3)[nH]n2)c2cccn2n1	97
O=C(c1nccs1)N1CCC[C@H]1c1nc(Nc2cc(C3CC3)[nH]n2)c2cccn2n1	1
